- SYSTEM_UNDER_TEST: human recombinant CYP1A1 (Homo sapiens)
- Sequence (P04798 1-512): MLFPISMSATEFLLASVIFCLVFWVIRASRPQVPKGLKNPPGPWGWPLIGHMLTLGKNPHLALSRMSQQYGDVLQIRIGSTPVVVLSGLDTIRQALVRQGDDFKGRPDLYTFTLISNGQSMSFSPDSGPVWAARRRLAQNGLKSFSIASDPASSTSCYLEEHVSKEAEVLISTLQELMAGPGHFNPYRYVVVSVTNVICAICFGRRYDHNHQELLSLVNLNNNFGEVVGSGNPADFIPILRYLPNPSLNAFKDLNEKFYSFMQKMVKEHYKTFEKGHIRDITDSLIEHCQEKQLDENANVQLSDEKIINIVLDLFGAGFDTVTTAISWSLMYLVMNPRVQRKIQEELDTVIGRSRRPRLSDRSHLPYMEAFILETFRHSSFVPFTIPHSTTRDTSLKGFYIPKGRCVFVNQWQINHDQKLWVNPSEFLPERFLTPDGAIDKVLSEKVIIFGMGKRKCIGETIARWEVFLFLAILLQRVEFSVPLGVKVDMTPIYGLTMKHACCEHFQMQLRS
- PROTOCOL: EROD activity of microsomes containing human recombinant CYP1A1
- Format: biochemical
- CONDITION_SET: IC50, inhibition of CYP1A1-mediated EROD activity, human recombinant CYP1A1 2.5 nM, 7-ethoxyresorufin 0.5 μM, NADPH 0.4 mM, 5 min pre-incubation
pIC50: −log10 of the molar value.
ENDPOINT: pIC50

Example cases with answers are listed next.
>>> result("O=C1c2ccccc2C(=O)c2ccccc21 [9,10-AQ, anthracene-9,10-quinone]")
"< 5.00"
>>> result("O=C1C=Cc2cccc3cccc1c23 [1H-PHO, 1H-phenalen-1-one]")
"< 5.00"
>>> result("O=C1CCc2ccccc21 [1-INO, 1-Indanone]")
"< 5.00"

Value of measured pIC50 for the entry O=C1C(=O)c2cccc3cccc1c23 [1,2-ACNQ, acenaphthylene-1,2-quinone] : < 5.00

Attribution: paper PMC6062249
